biological target: Potassium voltage-gated channel subfamily KQT member 2 (Rattus norvegicus) (UniProt O88943); assay: rat KCNQ2 channel potentiation, selectivity assay for KCNQ1 potentiator project, KCNQ2-CHO-K1 cells (AID 493009); settings: FluxOR thallium flux fluorescence, at 10 µM; active compounds read high, scaled: buffer 0, activator control 100;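 also: assay conditions were tuned for KCNQ1 rather than KCNQ2 modulators; signal is max minus min fluorescence divided by baseline after thallium stimulus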
Sequence (O88943 whole entry, looked up): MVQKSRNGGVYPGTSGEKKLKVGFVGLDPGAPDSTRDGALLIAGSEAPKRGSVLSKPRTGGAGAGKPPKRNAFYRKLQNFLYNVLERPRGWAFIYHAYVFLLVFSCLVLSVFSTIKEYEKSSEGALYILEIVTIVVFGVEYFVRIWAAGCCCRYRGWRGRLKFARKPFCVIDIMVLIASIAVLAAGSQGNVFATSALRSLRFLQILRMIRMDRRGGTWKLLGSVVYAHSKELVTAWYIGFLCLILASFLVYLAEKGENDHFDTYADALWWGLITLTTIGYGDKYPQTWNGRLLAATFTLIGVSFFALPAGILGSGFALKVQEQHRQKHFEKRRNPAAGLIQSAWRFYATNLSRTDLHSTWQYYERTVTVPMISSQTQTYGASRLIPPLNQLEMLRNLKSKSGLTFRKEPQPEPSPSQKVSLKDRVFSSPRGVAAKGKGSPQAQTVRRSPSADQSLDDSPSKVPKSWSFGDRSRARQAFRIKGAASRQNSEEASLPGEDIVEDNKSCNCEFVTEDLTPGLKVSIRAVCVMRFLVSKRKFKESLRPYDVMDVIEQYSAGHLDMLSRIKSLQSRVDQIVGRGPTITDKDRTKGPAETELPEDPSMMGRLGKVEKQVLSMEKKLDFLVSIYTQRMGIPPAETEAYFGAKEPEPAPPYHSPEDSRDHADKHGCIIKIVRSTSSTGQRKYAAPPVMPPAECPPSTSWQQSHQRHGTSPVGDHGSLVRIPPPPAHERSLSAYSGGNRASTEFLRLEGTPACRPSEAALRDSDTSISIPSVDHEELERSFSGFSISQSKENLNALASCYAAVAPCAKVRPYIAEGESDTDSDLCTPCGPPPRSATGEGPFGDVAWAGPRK
Activity calls are given as the source filed them.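 The calls were made as follows: active = mean duplicate potentiation above the buffer control mean plus 5 SD of buffer wells; inactive = the rest.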
quantity-measured: potentiation

Known potentiation results, listed for orientation:
CCOc1cc(CNCCCN2CCOCC2)ccc1OCC(=O)NC(C)(C)C | inactive
C=CCn1c(O)c(N=NC(=S)Nc2ccccc2F)c2ccccc21 | 416% (active)
O=C(NC(=S)N1CCN(c2ccccc2)CC1)c1ccccc1 | 281% (active)
CCOC(=O)c1c(NC(=S)NC(=O)c2ccco2)sc2c1CCCC2 | inactive
O=C(CNC(=O)C(c1ccccc1)c1ccccc1)N/N=C/c1ccc(O)cc1O | inactive
COc1cccc(NC(=S)N/N=C2/CCCCc3ccccc32)c1 | inactive

// field: potentiation; key: CCn1c(O)c(N=NC2=NC(=O)CS2)c2ccccc21 ; value = 145% (active)

Query Cc1noc(C)c1CSc1ncnc2sc(C)c(C)c12 yields potentiation of inactive

Short answer for CCCCCCCCCCCCC/C=C/[C@@H](O)[C@@H](N)CO : potentiation was 414% (active)

N=C1S/C(=C\c2ccco2)C(=O)N1c1nccs1 has a reported potentiation of 186% (active)

Value of measured potentiation for the entry CCC1(C)Cc2c(sc3nc(SC)[nH]c(=S)c23)CO1 (configuration not stated) : 534% (active)

response.value for S=c1[nH]nc(-c2ccco2)n1/N=C/C(Cl)=C/c1ccccc1 (field: potentiation) = inactive

Summary for this compound, COC(=O)C1C(=O)c2c([nH]c(C(=O)OCCSC)c2C)CC1C (configuration not stated) : potentiation is inactive

response.value for O=C(NC(=S)N1CCCC(C(F)(F)F)C1)c1ccc(F)cc1 (configuration not stated) (field: potentiation) = 260% (active)

Record S=c1[nH]nc(-c2ccc(Cl)cc2Cl)n1-c1ccc(Cl)cc1 . Reported potentiation: 167% (active)

Looking up Cc1c(-c2nc(-c3ccncc3)no2)cccc1[N+](=O)[O-] , I see its potentiation listed as inactive

For reference, reported potentiation for N#C/C(=C\c1ccc(-c2ccccc2Cl)o1)C(=O)Nc1nc2ccccc2s1 stands at inactive

The reported value for O=C(NCc1ccccn1)C1CCN(Cc2cccc(OCc3ccccc3)c2)CC1 in terms of potentiation is inactive

Quick note, potentiation for NC(=O)CN1C(=O)NC2(CCOc3ccccc32)C1=O (configuration not stated) landed at inactive

The reported value for CCOc1ccc2[nH]c(=O)c(CN(Cc3ccc(C)cc3)C(=O)N3CCCC3)cc2c1 in terms of potentiation is inactive

The recorded potentiation for entry CNC(=S)N/N=C/c1cc(Br)cc(Br)c1O equals inactive

// sample COc1ccc(CN(C)C(=O)c2cccc(NS(=O)(=O)c3ccccc3)c2)cc1F , its potentiation was inactive

Form field potentiation, entry CCCCOc1cccc(C(=O)NC(=S)Nc2cccnc2)c1 : 143% (active)

// sample COc1ccc(NC(=S)NC(=O)c2ccc(Br)o2)cc1 , its potentiation was 195% (active)
